System: H1299 (lung)
Assay: In vitro cytotoxic activity MTT assay, H1299
Type: cell-based
Conditions: Homo sapiens, NCI-H1299; H1299 (lung) cells, exposed for 96 hours; read-out: IC50, concentration of compound eliciting a 50% inhibition of cell proliferation
OBSERVATION_TYPE: IC50 (µM)
Numeric only. Scale: µM

Enquiry: // IC50 lookup, key: O=C(O)c1ccc2[nH]c3ncnc(Nc4cccc(Cl)c4)c3c2c1 [Example 1]
Return: 4.5

* * *

Molecular target: recombinant human CK2 (Homo sapiens, UniProt P68400)
Sequence (P68400 whole entry): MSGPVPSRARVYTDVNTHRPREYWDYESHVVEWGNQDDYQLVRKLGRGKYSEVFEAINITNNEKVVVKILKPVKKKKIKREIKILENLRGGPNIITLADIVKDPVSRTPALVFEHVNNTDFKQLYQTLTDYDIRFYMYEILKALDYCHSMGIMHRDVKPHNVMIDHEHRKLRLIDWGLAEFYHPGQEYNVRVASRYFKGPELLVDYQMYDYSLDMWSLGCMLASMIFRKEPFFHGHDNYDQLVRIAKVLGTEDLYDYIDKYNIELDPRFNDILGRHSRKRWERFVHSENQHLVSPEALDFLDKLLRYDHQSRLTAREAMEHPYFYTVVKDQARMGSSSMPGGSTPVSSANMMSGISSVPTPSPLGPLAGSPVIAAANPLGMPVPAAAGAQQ
Sequence (P67870 whole entry partner): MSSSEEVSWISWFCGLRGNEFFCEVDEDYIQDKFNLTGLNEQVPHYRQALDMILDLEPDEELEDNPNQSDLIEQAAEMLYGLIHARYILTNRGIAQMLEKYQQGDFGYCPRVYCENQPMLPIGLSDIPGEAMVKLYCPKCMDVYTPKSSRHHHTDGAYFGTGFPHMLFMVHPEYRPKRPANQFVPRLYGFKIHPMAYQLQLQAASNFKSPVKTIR
Assay: CK2 Kinase Assay (radiometric, 33P-ATP)
Settings: final ATP concentration 15 μM, 10 min at 30° C., eight concentrations; read-out: protein kinase CK2 IC50
OBSERVATION_TYPE: IC50 (nM)
Write it as a number; the unit nM goes unstated.

Enquiry: Name the recorded IC50 for "O=C(O)c1ccc2[nH]c3ncnc(Nc4cccc(Cl)c4)c3c2c1" .
Return: 68
